// values below are IC50; system is Polyunsaturated fatty acid lipoxygenase ALOX15 (Homo sapiens)
Sequence (P16050 whole entry): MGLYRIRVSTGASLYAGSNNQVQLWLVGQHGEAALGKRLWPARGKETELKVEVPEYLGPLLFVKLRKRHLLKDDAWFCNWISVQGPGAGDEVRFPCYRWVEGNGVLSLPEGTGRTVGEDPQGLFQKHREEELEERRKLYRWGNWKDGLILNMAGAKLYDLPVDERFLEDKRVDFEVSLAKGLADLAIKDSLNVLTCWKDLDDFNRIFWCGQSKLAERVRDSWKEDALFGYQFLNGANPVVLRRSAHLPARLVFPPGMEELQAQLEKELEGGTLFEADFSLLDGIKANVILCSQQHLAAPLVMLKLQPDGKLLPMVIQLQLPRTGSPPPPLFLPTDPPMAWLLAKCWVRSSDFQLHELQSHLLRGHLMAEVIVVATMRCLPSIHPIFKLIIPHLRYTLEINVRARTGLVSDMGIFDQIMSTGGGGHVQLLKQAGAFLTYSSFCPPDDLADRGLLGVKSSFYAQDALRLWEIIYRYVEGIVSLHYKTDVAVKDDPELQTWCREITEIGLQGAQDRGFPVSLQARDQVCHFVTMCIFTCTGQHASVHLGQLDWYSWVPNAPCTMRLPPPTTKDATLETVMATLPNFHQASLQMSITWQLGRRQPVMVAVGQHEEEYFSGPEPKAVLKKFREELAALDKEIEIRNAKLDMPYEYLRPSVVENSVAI
Only the number, expressed in µM, is required.

Some entries whose results are on file:
Oc1cc(Br)c(Br)c(Br)c1Oc1ccc(Br)cc1Br ... 7.4
Oc1c(Oc2ccc(Br)cc2Br)cc(Br)c(Br)c1Br ... 7.4
Oc1c(Br)cc(Br)cc1Oc1c(O)c(Br)c(Br)c(Br)c1Br ... 1.3

Here is the next item to consider.
I'm curious: which IC50 was measured for `Oc1c(Br)cc(Br)cc1Oc1c(Br)cc(Br)c(Br)c1O` tested on Polyunsaturated fatty acid lipoxygenase ALOX15 (Homo sapiens)?
2.5
